Biological target: Neuronal acetylcholine receptor subunit alpha-7 (Homo sapiens)
Sequence (P36544 whole entry): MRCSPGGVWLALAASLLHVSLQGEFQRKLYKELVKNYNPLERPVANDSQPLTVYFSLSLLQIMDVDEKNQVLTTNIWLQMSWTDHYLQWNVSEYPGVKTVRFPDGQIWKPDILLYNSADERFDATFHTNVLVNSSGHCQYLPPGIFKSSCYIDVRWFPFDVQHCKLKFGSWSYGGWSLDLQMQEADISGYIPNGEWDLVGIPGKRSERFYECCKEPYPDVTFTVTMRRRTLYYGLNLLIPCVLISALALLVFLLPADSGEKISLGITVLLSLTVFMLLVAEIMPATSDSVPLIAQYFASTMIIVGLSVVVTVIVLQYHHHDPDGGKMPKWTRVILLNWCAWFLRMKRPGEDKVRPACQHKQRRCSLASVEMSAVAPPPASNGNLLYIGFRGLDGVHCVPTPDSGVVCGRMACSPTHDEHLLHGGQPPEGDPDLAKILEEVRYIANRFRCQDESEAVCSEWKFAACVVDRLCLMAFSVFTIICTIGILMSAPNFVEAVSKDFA
Experiment: Positive allosteric modulation of human alpha 7 nAChR expressed in HEK cells co-expressing human RIC3 assessed as increase in acetylcholine-induced channel current at holding potential of -60 mV incubated for 58 secs followed by acetylcholine treatment for 1 sec by patch clamp electrophysiology assay
recorded metric: pEC50
Please note pEC50 is a logarithmic value: minus log10 of concentration in mol/L. Answer with that number alone.

If you can, please state the reported pEC50 value of CC(Oc1cccc(Cl)c1)c1nc([C@H]2[C@H](c3ccc(S(N)(=O)=O)cc3)C2(C)C)no1 (stereo not given in full) .
7.03

If you can, please state the reported pEC50 value of CC1(C)[C@@H](c2ccc(S(N)(=O)=O)cc2)[C@@H]1c1noc(C2CC(F)(F)C2)n1 .
7.01

If you can, please state the reported pEC50 value of CC1(C)[C@@H](c2ccc(S(N)(=O)=O)cc2)[C@@H]1c1noc(C2CCCC2)n1 .
7.16

If you can, please state the reported pEC50 value of NS(=O)(=O)c1ccc([C@H]2[C@H](c3noc(-c4ccccc4)n3)C2(F)F)cc1 .
7.08

If you can, please state the reported pEC50 value of CC1(C)[C@@H](c2ccc(S(N)(=O)=O)cc2)[C@@H]1c1noc(-c2ccc(F)cc2)n1 .
7.03
